Tested on: Escherichia coli
Test Description: Antibacterial activity against Escherichia coli B-906 after 24 to 72 hrs by serial dilution technique
Type: functional
Calls of active or inactive are those of the source. No cut-off for these calls is given here.
Quantity: inhibition

O=C1C(SCCCCCCCCCO)=C(SCCCCCCCCCO)C(=O)c2ccccc21 ... inactive
CCOC1=C(SCc2c(C)cc(C)cc2C)C(=O)c2ccccc2C1=O ... inactive
O=C1C2=C(SCCSCCSC3=C(SCCSCCS2)C(=O)c2ccccc2C3=O)C(=O)c2ccccc21 ... inactive

* * *

I'd appreciate it if you could supply MIC values for the items below.
Test system: Staphylococcus aureus
Test Description: Antibacterial activity against Staphylococcus aureus 209-P after 24 to 72 hrs by serial dilution technique
Assay type: functional
Hi! Could you send only the number? It should be in mg/L, unit omitted.

Entry "O=C1C(SCCCCCCCCCO)=C(SCCCCCCCCCO)C(=O)c2ccccc21" — recorded MIC = 250

Entry "O=C1C(Sc2ncccn2)=C(Sc2ncccn2)C(=O)c2ccccc21" — recorded MIC = 62.5

Entry "O=C1C(SCCCCO)=C(SCCCCO)C(=O)c2ccccc21" — recorded MIC = 15.6

Entry "CCOC1=C(SCCCCO)C(=O)c2ccccc2C1=O" — recorded MIC = 250
